# ASSAY_TARGET: BRAF (V600E) (Homo sapiens, UniProt P15056, V600E)
# Sequence (P15056 whole entry V600E): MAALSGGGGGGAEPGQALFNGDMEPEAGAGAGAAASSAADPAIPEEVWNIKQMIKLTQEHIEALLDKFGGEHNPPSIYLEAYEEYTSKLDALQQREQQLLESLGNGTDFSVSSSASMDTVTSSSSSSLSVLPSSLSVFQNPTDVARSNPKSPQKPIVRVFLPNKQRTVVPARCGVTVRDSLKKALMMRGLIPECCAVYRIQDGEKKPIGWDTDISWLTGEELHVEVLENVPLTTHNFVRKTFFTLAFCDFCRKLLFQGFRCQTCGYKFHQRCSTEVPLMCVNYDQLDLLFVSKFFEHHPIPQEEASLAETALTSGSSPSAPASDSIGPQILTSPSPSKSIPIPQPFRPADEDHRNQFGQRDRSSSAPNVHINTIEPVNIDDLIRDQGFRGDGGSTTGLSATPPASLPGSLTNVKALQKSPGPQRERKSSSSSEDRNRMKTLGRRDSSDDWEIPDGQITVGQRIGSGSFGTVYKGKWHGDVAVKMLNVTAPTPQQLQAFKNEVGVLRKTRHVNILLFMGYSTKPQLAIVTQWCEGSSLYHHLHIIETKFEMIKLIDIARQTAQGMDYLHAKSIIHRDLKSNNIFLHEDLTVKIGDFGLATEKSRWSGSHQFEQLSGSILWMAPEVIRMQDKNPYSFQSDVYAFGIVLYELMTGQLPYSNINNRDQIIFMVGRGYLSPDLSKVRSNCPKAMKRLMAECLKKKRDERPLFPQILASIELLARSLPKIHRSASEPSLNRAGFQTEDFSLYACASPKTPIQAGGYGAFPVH
# PROTOCOL_DESCRIPTION: In vitro BRAF (V600E) kinase inhibitory assay
# Assay type: biochemical
OBSERVED_PROPERTY: IC50 (µM)
Give bare numbers, in µM.

Sample answers from the record:
O=C(CSc1nnc(NC(=O)Nc2ccc(C(F)(F)F)c(Cl)c2)s1)Nc1nc2ccc(Cl)cc2s1: 1.36
O=C(CSc1nnc(NC(=O)Nc2ccc(C(F)(F)F)c(Cl)c2)s1)Nc1nc2ccccc2s1: 0.194

Query string: Find IC50 (BRAF (V600E) (Homo sapiens, UniProt P15056, V600E)) for the entry O=C(CSc1nnc(NC(=O)Nc2ccccc2)s1)Nc1nc2ccccc2s1
Result string: 0.677

###

# Test system: HePG-2
# PROTOCOL_DESCRIPTION: MTT antiproliferative assay, HePG-2
# Type: cell-based
# MEASUREMENT_CONDITIONS: Homo sapiens, HepG2; hepatocellular carcinoma HePG-2, MTT
API: label(entry) gives t if the entry's IC50 is strictly smaller than 30 µM; on equality or larger values it gives f.

Some entries whose results are on file:
COc1ccc(NC(=O)Nc2nnc(SCC(=O)Nc3nc4ccccc4s3)s2)cc1 [4c]: f
Cc1ccc(NC(=O)Nc2nnc(SCC(=O)Nc3nc4ccccc4s3)s2)cc1 [4b]: f

Query string: Decide: IC50 of Cc1ccc2nc(NC(=O)CSc3nnc(NC(=O)Nc4ccccc4)s3)sc2c1 [4g] strictly below 30 µM?
Result string: t

Query string: // same read-out, input: O=C(CSc1nnc(NC(=O)Nc2ccc(Cl)cc2)s1)Nc1nc2ccc(Cl)cc2s1 [4p]
Result string: f

Query string: // same read-out, input: O=C(CSc1nnc(NC(=O)Nc2ccc(C(F)(F)F)c(Cl)c2)s1)Nc1nc2ccccc2s1 [4f]
Result string: t

Query string: // same read-out, input: Cc1ccc(NC(=O)Nc2nnc(SCC(=O)Nc3nc4ccc(C)cc4s3)s2)cc1 [4h]
Result string: f

Query string: // same read-out, input: O=C(CSc1nnc(NC(=O)Nc2ccc(F)cc2)s1)Nc1nc2ccc(Cl)cc2s1 [4q]
Result string: t

Query string: // same read-out, input: O=C(CSc1nnc(NC(=O)Nc2ccc(F)cc2)s1)Nc1nc2ccccc2s1 [4e]
Result string: f

###

# ASSAY_TARGET: VEGFR-2 (Homo sapiens)
# Sequence (P35968 20-1356): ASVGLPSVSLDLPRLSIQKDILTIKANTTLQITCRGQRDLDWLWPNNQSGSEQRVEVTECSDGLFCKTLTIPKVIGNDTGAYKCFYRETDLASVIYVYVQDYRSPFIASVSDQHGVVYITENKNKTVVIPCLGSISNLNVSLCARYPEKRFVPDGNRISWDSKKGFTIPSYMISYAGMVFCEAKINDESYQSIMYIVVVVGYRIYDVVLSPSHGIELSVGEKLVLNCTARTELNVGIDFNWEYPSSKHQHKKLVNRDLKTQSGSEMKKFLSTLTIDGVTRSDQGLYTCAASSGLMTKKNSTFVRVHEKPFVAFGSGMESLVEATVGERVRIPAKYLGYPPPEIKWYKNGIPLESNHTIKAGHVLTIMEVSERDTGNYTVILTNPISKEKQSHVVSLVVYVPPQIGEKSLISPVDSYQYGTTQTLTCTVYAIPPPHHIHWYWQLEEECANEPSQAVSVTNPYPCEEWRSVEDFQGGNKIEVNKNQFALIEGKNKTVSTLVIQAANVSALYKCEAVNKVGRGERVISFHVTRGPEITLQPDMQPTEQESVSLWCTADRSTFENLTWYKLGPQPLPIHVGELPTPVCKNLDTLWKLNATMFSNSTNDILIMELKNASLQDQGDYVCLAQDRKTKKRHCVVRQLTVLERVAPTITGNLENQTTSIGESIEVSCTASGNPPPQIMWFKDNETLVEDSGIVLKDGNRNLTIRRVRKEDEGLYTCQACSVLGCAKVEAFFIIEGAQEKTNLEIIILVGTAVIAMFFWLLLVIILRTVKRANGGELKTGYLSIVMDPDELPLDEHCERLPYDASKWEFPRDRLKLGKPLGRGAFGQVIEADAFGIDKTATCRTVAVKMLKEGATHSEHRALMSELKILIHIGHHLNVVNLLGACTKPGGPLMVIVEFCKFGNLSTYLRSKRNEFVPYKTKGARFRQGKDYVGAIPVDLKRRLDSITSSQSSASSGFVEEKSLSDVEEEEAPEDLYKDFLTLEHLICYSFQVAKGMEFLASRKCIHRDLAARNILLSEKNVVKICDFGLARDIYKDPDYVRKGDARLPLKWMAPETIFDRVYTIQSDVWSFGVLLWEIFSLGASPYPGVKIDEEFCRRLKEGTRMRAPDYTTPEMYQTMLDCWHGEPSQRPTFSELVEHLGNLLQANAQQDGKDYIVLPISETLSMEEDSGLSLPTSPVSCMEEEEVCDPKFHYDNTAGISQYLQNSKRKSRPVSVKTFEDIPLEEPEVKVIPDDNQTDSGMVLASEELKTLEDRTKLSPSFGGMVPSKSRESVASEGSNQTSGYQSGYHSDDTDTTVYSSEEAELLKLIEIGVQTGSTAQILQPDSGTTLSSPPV
# PROTOCOL_DESCRIPTION: In vitro VEGFR-2 kinase inhibitory assay
# Format: biochemical
OBSERVED_PROPERTY: IC50
Please provide the amount together with its unit, number first.

O=C(CSc1nnc(NC(=O)Nc2ccc(C(F)(F)F)c(Cl)c2)s1)Nc1nc2ccc(Cl)cc2s1: 0.794 µM
O=C(CSc1nnc(NC(=O)Nc2ccc(C(F)(F)F)c(Cl)c2)s1)Nc1nc2ccccc2s1: 0.071 µM

Attention now turns to another entry.
Query string: IC50 lookup needed for O=C(CSc1nnc(NC(=O)Nc2ccccc2)s1)Nc1nc2ccccc2s1 , thanks.
Result string: 0.342 µM

###

Would you mind telling me the reported IC50 of each entry?
# Tested on: HePG-2, HCT-116 and MCF-7 cell lines
# PROTOCOL_DESCRIPTION: MTT antiproliferative assay, range over the three cancer cell lines
# Type: cell-based
# MEASUREMENT_CONDITIONS: Homo sapiens; read-out: IC50 range of the compound over the cancer cell lines

Sample answers from the record:
O=C(CSc1nnc(NC(=O)Nc2ccccc2)s1)Nc1nc2ccccc2s1: 5.91 to 12.9 µM
O=C(CSc1nnc(NC(=O)Nc2ccc(C(F)(F)F)c(Cl)c2)s1)Nc1nc2ccc(Cl)cc2s1: 3.85 to 8.1 µM

Attention now turns to another entry.
Query string: IC50 lookup needed for O=C(CSc1nnc(NC(=O)Nc2ccc(C(F)(F)F)c(Cl)c2)s1)Nc1nc2ccccc2s1 , thanks.
Result string: 2.74 to 5.05 µM

###

Would you mind telling me the reported IC50 of each entry?
# Tested on: HePG-2
# PROTOCOL_DESCRIPTION: MTT antiproliferative assay, HePG-2
# Type: cell-based
# MEASUREMENT_CONDITIONS: Homo sapiens, HepG2; hepatocellular carcinoma HePG-2, MTT
One number for each entry, in µM.

Sample answers from the record:
O=C(CSc1nnc(NC(=O)Nc2ccc(Cl)cc2)s1)Nc1nc2ccccc2s1: 30.2
Cc1ccc2nc(NC(=O)CSc3nnc(NC(=O)Nc4ccc(Cl)cc4)s3)sc2c1: 78.1
COc1ccc(NC(=O)Nc2nnc(SCC(=O)Nc3nc4ccc(Cl)cc4s3)s2)cc1: 35
Cc1ccc2nc(NC(=O)CSc3nnc(NC(=O)Nc4ccc(F)cc4)s3)sc2c1: 64.2
COc1ccc(NC(=O)Nc2nnc(SCC(=O)Nc3nc4ccc(C)cc4s3)s2)cc1: 53.1

Required: IC50, one value per compound below.
1. Cc1ccc2nc(NC(=O)CSc3nnc(NC(=O)Nc4ccc(C(F)(F)F)c(Cl)c4)s3)sc2c1
2. Cc1ccc(NC(=O)Nc2nnc(SCC(=O)Nc3nc4ccc(Cl)cc4s3)s2)cc1
3. O=C(CSc1nnc(NC(=O)Nc2ccccc2)s1)Nc1nc2ccc(Cl)cc2s1
4. O=C(CSc1nnc(NC(=O)Nc2ccccc2)s1)Nc1nc2ccccc2s1
5. O=C(CSc1nnc(NC(=O)Nc2ccc(C(F)(F)F)c(Cl)c2)s1)Nc1nc2ccc(Cl)cc2s1

Result string:
1: 15.4; 2: 32.8; 3: 29.8; 4: 12.9; 5: 8.1

Hello, the source for this data is paper PMC11243196, in case you need it.
